// values below are reported MNTC
# System: Marc-145 cells
# assay-protocol: Cytotoxicity assay (MTT)
# reported-conditions: Marc-145, maximum non-cytotoxic concentration (90 % cell viability)

Example cases with answers are listed next.
compound	MNTC
Cc1c(C(C)O)nc2ccccc2[n+]1[O-] (centres unmarked)	3.9 µg/mL
CC(=O)c1nc2ccccc2nc1C	1.0 µg/mL
Cc1c(C(=O)/C=C/c2ccccc2)[n+]([O-])c2ccccc2[n+]1[O-]	0.39 µg/mL
N#CCC(=O)N/N=C/c1cnc2ccccc2n1	3.9 µg/mL

Query string: Quick one: MNTC for Cc1c(C(C)O)[n+]([O-])c2ccccc2[n+]1[O-] (centres unmarked) ?
Result string: 2.0 µg/mL

Query string: Ok, now CC(=O)c1c(C)[n+]([O-])c2ccccc2[n+]1[O-]
Result string: 1.0 µg/mL

Query string: Same question, NC(=O)c1ncn([C@@H]2O[C@H](CO)[C@@H](O)[C@H]2O)n1 this time
Result string: 8.6 µg/mL

Query string: Likewise for N#CCC(=O)N/N=C/c1cnc2ccccc2[n+]1[O-] ?
Result string: 2.0 µg/mL

Query string: What would you report for N#CCC(=O)N/N=C/c1c[n+]([O-])c2ccccc2[n+]1[O-] ?
Result string: 1.56 µg/mL

Query string: Then Cc1nc2ccccc2nc1C(C)O (centres unmarked) ?
Result string: 2.0 µg/mL

Query string: Moving on to N#CCC(=O)N/N=C/c1c[n+]([O-])c2ccccc2n1
Result string: 2.0 µg/mL
